Assay: Ex vivo biodistribution in H69-tumor bearing mice
Conditions: mouse, in vivo, iv, Uptake in Stomach, 24 h p.i., n = 4
Protocol: Six-week‐old female Balb/c nu/nu‐specific mice (Janvier Labs, Le Genest‐Saint‐Isle, France) were housed in individually ventilated cages (4 mice/cage). Upon arrival, mice were acclimated for one week, with access to food and water ad libitum. Mice were subcutaneously inoculated on the right shoulder with NCI-H69 cells (5 × 10^6 cells) suspended in 100 μL of 1/3 Matrigel (Corning Inc.; Corning, NY, USA) and 2/3 Hank’s balanced salt solution (Gibco; Paisley, UK). […]
quantity.measured: tissue uptake at 24 h (%ID/g)
Give just the number in %ID/g; leave the unit off.

Item under review: C[C@@H](O)[C@H](NC(=O)[C@@H]1CSSC[C@H](NC(=O)[C@@H](Cc2ccccc2)NC(=O)CN2CCN(CC(=O)O)CCN(CC(=O)O)CCN(CC(=O)O)CC2)C(=O)N[C@@H](Cc2ccc(O)cc2)C(=O)N[C@H](Cc2c[nH]c3ccccc23)C(=O)N[C@@H](CCCCN)C(=O)N[C@@H]([C@@H](C)O)C(=O)N1)C(=O)O [[^111In]In-DOTA-TATE, metal not drawn, reference compound] . Reported tissue uptake at 24 h?
0.51

----------
Experiment: Ex vivo biodistribution in H69-tumor bearing mice
Conditions: mouse, in vivo, iv, Uptake in Tumor, 1 h p.i., n = 4
quantity.measured: tissue uptake at 1 h

Item under review: C[C@@H](O)[C@H](NC(=O)[C@@H]1CSSC[C@H](NC(=O)[C@@H](Cc2ccccc2)NC(=O)CN2CCN(CC(=O)O)CCN(CC(=O)O)CCN(CC(=O)O)CC2)C(=O)N[C@@H](Cc2ccc(O)cc2)C(=O)N[C@H](Cc2c[nH]c3ccccc23)C(=O)N[C@@H](CCCCN)C(=O)N[C@@H]([C@@H](C)O)C(=O)N1)C(=O)O [[^111In]In-DOTA-TATE, metal not drawn, reference compound] . Reported tissue uptake at 1 h?
~5 %ID/g

----------
Assay: Ex vivo biodistribution in H69-tumor bearing mice
Details: mouse, in vivo, iv, Uptake in Bones, 4 h p.i., n = 4
quantity.measured: tissue uptake at 4 h

Item under review: C[C@@H](O)[C@H](NC(=O)[C@@H]1CSSC[C@H](NC(=O)[C@@H](Cc2ccccc2)NC(=O)CN2CCN(CC(=O)O)CCN(CC(=O)O)CCN(CC(=O)O)CC2)C(=O)N[C@@H](Cc2ccc(O)cc2)C(=O)N[C@H](Cc2c[nH]c3ccccc23)C(=O)N[C@@H](CCCCN)C(=O)N[C@@H]([C@@H](C)O)C(=O)N1)C(=O)O [[^111In]In-DOTA-TATE, metal not drawn, reference compound] . Reported tissue uptake at 4 h?
0.13 %ID/g

----------
Test: Ex vivo biodistribution in H69-tumor bearing mice
Details: mouse, in vivo, iv, Uptake in Liver, 1 h p.i., n = 4
quantity.measured: tissue uptake at 1 h (%ID/g)
Give just the number in %ID/g; leave the unit off.

Item under review: C[C@@H](O)[C@H](NC(=O)[C@@H]1CSSC[C@H](NC(=O)[C@@H](Cc2ccccc2)NC(=O)CN2CCN(CC(=O)O)CCN(CC(=O)O)CCN(CC(=O)O)CC2)C(=O)N[C@@H](Cc2ccc(O)cc2)C(=O)N[C@H](Cc2c[nH]c3ccccc23)C(=O)N[C@@H](CCCCN)C(=O)N[C@@H]([C@@H](C)O)C(=O)N1)C(=O)O [[^111In]In-DOTA-TATE, metal not drawn, reference compound] . Reported tissue uptake at 1 h?
0.21
